// provenance: patent US8247211B2

- Test system: Staphylococcus sp.
- test-summary: In vitro antibacterial evaluation: minimum inhibitory concentration (MIC), broth dilution method
- Type: cell-based
- experimental-setup: strain GC 3053
reported-metric: MIC Staphylococcus aureus (GC 3053) (µg/mL)
Form entry: value (µg/mL) — number only.

Field: example entries. Status: answers known.
- molecule: "Cc1ccc(CC2OCC3OC(OC4C(CO)OC(Oc5ccc(CC6NC(=O)C(C(C)c7ccccc7)NC(=O)CNC(=O)C(CO)NC(=O)C(C(O)C7CNC(=N)N7C7OC(CO)C(O)C(O)C7O)NC(=O)C(C(O)C7CNC(=N)N7)NC6=O)cc5)C(O)C4O)C(O)C(O)C3O2)cc1 (stereo not shown) [Example 119]"
  recorded-value: 2
- molecule: "CC(c1ccccc1)C1NC(=O)CNC(=O)C(CO)NC(=O)C(C(O)C2CN(c3ncccn3)C(=N)N2C2OC(CO)C(O)C(O)C2O)NC(=O)C(C(O)C2CNC(=Nc3ncccn3)N2)NC(=O)C(Cc2ccc(OC3OC(CO)C(OC4OC5COC6(OC5C(O)C4O)C4CC5CC(C4)CC6C5)C(O)C3O)cc2)NC1=O (stereo not shown) [Example 228]"
  recorded-value: 32
- molecule: "CC(c1ccccc1)C1NC(=O)CNC(=O)C(CO)NC(=O)C(C(O)C2CNC(=N)N2C2OC(CO)C(O)C(O)C2O)NC(=O)C(C(O)C2CNC(=N)N2)NC(=O)C(Cc2ccc(OC3OC(CO)C(OC4OC5COC(c6ccc(C(=O)c7ccc(I)cc7)cc6)OC5C(O)C4O)C(O)C3O)cc2)NC1=O (stereo not shown) [Example 186]"
  recorded-value: 2

Here's the next entry for you.
Given CC(C1CCCCC1)C1NC(=O)CNC(=O)C(CO)NC(=O)C(C(O)C2CNC(=N)N2C2OC(CO)C(O)C(O)C2O)NC(=O)C(C(O)C2CNC(=N)N2)NC(=O)C(Cc2ccc(OC3OC(CO)C(OC4OC5COC(c6ccccc6)OC5C(O)C4O)C(O)C3O)cc2)NC1=O (stereo not shown) [Example 201] , respond with its MIC Staphylococcus aureus (GC 3053).
0.5

====

- Tested on: Enterococcus sp.
- test-summary: In vitro antibacterial evaluation: minimum inhibitory concentration (MIC), broth dilution method
- Assay type: cell-based
- experimental-setup: broth dilution, inoculum 5×10^5 CFU/mL, 18 hours at 35° C.
reported-metric: MIC Enterococcus faecalis (GC 6189)

Fetch value of MIC Enterococcus faecalis (GC 6189) on Enterococcus sp. for CSc1ccc(C2OCC3OC(OC4C(CO)OC(Oc5ccc(CC6NC(=O)C(C(C)c7ccccc7)NC(=O)CNC(=O)C(CO)NC(=O)C(C(O)C7CNC(=N)N7C7OC(CO)C(O)C(O)C7O)NC(=O)C(C(O)C7CNC(=N)N7)NC6=O)cc5)C(O)C4O)C(O)C(O)C3O2)cc1[N+](=O)[O-] (stereo not drawn) .
2 µg/mL

====

- System: Enterococcus sp.
- test-summary: In vitro antibacterial evaluation: minimum inhibitory concentration (MIC), broth dilution method
- Format: cell-based
- experimental-setup: broth dilution, inoculum 5×10^5 CFU/mL, 18 hours at 35° C.
Entries and their measured MIC Enterococcus faecalis (GC 4553) follow.
# output: bare number, implied unit mg/L

Study these solved cases before continuing.
- molecule: "CC(c1ccccc1)C1NC(=O)CNC(=O)C(CO)NC(=O)C(C(O)C2CN(Cc3ccc(C(F)(F)F)cc3)C(=N)N2C2OC(CO)C(O)C(O)C2O)NC(=O)C(C(O)C2CNC(=N)N2)NC(=O)C(Cc2ccc(OC3OC(CO)C(OC4OC5COC6(OC5C(O)C4O)C4CC5CC(C4)CC6C5)C(O)C3O)cc2)NC1=O (stereo not shown)"
  MIC Enterococcus faecalis (GC 4553) / mg/L: 16
- molecule: "N=C1NCC(C(O)C2NC(=O)C(Cc3ccc(OC4OC(CO)C(OC5OC6COC(c7ccccc7)OC6C(O)C5O)C(O)C4O)cc3)NC(=O)C(CC3CCCCC3)NC(=O)CNC(=O)C(CO)NC(=O)C(C(O)C3CNC(=N)N3C3OC(CO)C(O)C(O)C3O)NC2=O)N1 (stereo not shown)"
  MIC Enterococcus faecalis (GC 4553) / mg/L: 4
- molecule: "CC(c1ccccc1)C1NC(=O)CNC(=O)C(CO)NC(=O)C(C(O)C2CNC(=N)N2C2OC(CO)C(O)C(O)C2O)NC(=O)C(C(O)C2CNC(=N)N2)NC(=O)C(Cc2ccc(OC3OC(CO)C(OC4OC5COC(c6ccc(-c7ccc(Cl)cc7)cc6)OC5C(O)C4O)C(O)C3O)cc2)NC1=O (stereo not shown)"
  MIC Enterococcus faecalis (GC 4553) / mg/L: 2

// next entry
For the molecule CC(c1ccccc1)C1NC(=O)CNC(=O)C(CO)NC(=O)C(C(O)C2CNC(=N)N2C2OC(CO)C(O)C(O)C2O)NC(=O)C(C(O)C2CNC(=N)N2)NC(=O)C(Cc2ccc(OC3OC(CO)C(OC4OC5COC6(CCCCC6C)OC5C(O)C4O)C(O)C3O)cc2)NC1=O (stereo not shown) , give its measured MIC Enterococcus faecalis (GC 4553) value.
16

====

# reported MIC Streptococcus pyogenes (GC 4563); entries follow
- Tested on: Streptococcus sp.
- test-summary: In vitro antibacterial evaluation: minimum inhibitory concentration (MIC), broth dilution method
- Type: cell-based
- experimental-setup: broth dilution, 5×10^5 CFU/mL, 18 hours at 35° C.
Supply the numeric figure in mg/L, leaving out any unit text.

Solved entries:
- molecule: "CC(C)=CCCC(C)C1OCC2OC(OC3C(CO)OC(Oc4ccc(CC5NC(=O)C(C(C)c6ccccc6)NC(=O)CNC(=O)C(CO)NC(=O)C(C(O)C6CNC(=N)N6C6OC(CO)C(O)C(O)C6O)NC(=O)C(C(O)C6CNC(=N)N6)NC5=O)cc4)C(O)C3O)C(O)C(O)C2O1 (stereo not drawn) [Example 125]"
  reported-metric: "MIC Streptococcus pyogenes (GC 4563)"
  unit-spec: "mg/L"
  recorded-value: 0.5
- molecule: "N=C1NCC(C(O)C2NC(=O)C(Cc3ccc(OC4OC(CO)C(OC5OC6COC7(OC6C6OC8(OC56)C5CC6CC(C5)CC8C6)C5CC6CC(C5)CC7C6)C(O)C4O)cc3)NC(=O)C(CC3CCCCC3)NC(=O)CNC(=O)C(CO)NC(=O)C(C(O)C3CNC(=N)N3C3OC(CO)C(O)C(O)C3O)NC2=O)N1 (stereo not drawn) [Example 106b]"
  reported-metric: "MIC Streptococcus pyogenes (GC 4563)"
  unit-spec: "mg/L"
  recorded-value: 0.5
- molecule: "CC(c1ccccc1)C1NC(=O)CNC(=O)C(CO)NC(=O)C(C(O)C2CNC(=N)N2C2OC(CO)C(O)C(O)C2O)NC(=O)C(C(O)C2CNC(=N)N2)NC(=O)C(Cc2ccc(OC3OC(CO)C(OC4OC5COC(Cc6ccc(F)cc6)OC5C(O)C4O)C(O)C3O)cc2)NC1=O (stereo not drawn) [Example 121]"
  reported-metric: "MIC Streptococcus pyogenes (GC 4563)"
  unit-spec: "mg/L"
  recorded-value: 0.25
- molecule: "CC(c1ccccc1)C1NC(=O)CNC(=O)C(CO)NC(=O)C(C(O)C2CNC(=N)N2C2OC(CO)C(O)C(O)C2O)NC(=O)C(C(O)C2CNC(=N)N2)NC(=O)C(Cc2ccc(OC3OC(CO)C(OC4OC(CO)C(O)C5OC(CC67CC8CC(CC(C8)C6)C7)OC45)C(O)C3O)cc2)NC1=O (stereo not drawn) [Example 128]"
  reported-metric: "MIC Streptococcus pyogenes (GC 4563)"
  unit-spec: "mg/L"
  recorded-value: 0.5

Return MIC Streptococcus pyogenes (GC 4563) (reported value) for this molecule: CC(c1ccccc1)C1NC(=O)CNC(=O)C(CO)NC(=O)C(C(O)C2CNC(=N)N2C2OC(CO)C(O)C(O)C2O)NC(=O)C(C(O)C2CNC(=N)N2)NC(=O)C(Cc2ccc(OC3OC(CO)C(OC4OC5COC(C6CC=CCC6)OC5C(O)C4O)C(O)C3O)cc2)NC1=O (stereo not drawn) [Example 115]
0.25

Return value of MIC Streptococcus pyogenes (GC 4563) for input CC(C)=CCCC(C)CC1OCC2OC(OC3C(CO)OC(Oc4ccc(CC5NC(=O)C(C(C)c6ccccc6)NC(=O)CNC(=O)C(CO)NC(=O)C(C(O)C6CNC(=N)N6C6OC(CO)C(O)C(O)C6O)NC(=O)C(C(O)C6CNC(=N)N6)NC5=O)cc4)C(O)C3O)C(O)C(O)C2O1 (stereo not drawn) [Example 126] , no commentary.
0.12

====

Measured MIC Streptococcus pneumoniae (GC 1894) values are reported for all entries that follow.
- System: Streptococcus sp.
- test-summary: In vitro antibacterial evaluation: minimum inhibitory concentration (MIC), broth dilution method
- Format: cell-based
- experimental-setup: broth dilution, inoculum 5×10^5 CFU/mL, 18 hours at 35° C.
- Source text: […]

Give reported MIC Streptococcus pneumoniae (GC 1894) value for N=C1NCC(C(O)C2NC(=O)C(Cc3ccc(OC4OC(CO)C(OC5OC6COC(CCc7ccccc7)OC6C(O)C5O)C(O)C4O)cc3)NC(=O)C(CC3CCCCC3)NC(=O)CNC(=O)C(CO)NC(=O)C(C(O)C3CNC(=N)N3C3OC(CO)C(O)C(O)C3O)NC2=O)N1 (stereo not shown) [Example 198]
<0.12 µg/mL

Answer with the recorded MIC Streptococcus pneumoniae (GC 1894) for the molecule listed here: CC(c1ccccc1)C1NC(=O)CNC(=O)C(CO)NC(=O)C(C(O)C2CNC(=N)N2C2OC(CO)C(O)C(O)C2O)NC(=O)C(C(O)C2CNC(=N)N2)NC(=O)C(Cc2ccc(OC3OC(CO)C(OC4OC(COCc5ccc(Oc6ccccc6)cc5)C(O)C(O)C4O)C(O)C3O)cc2)NC1=O (stereo not shown) [Example 236]
<0.06 µg/mL

Supply measured MIC Streptococcus pneumoniae (GC 1894) of CC(c1ccccc1)C1NC(=O)CNC(=O)C(CO)NC(=O)C(C(O)C2CNC(=N)N2C2OC(CO)C(O)C(O)C2O)NC(=O)C(C(O)C2CNC(=N)N2)NC(=O)C(Cc2ccc(OC3OC(CO)C(OC4OC(COCC=C(c5ccccc5)c5ccccc5)C(O)C(O)C4O)C(O)C3O)cc2)NC1=O (stereo not shown) [Example 241] in your reply.
<0.06 µg/mL

Retrieve MIC Streptococcus pneumoniae (GC 1894) measured for CC(C1CCCCC1)C1NC(=O)CNC(=O)C(CO)NC(=O)C(C(O)C2CNC(=N)N2C2OC(CO)C(O)C(O)C2O)NC(=O)C(C(O)C2CNC(=N)N2)NC(=O)C(Cc2ccc(OC3OC(CO)C(OC4OC5COC6(OC5C(O)C4O)C4CC5CC(C4)CC6C5)C(O)C3O)cc2)NC1=O (stereo not shown) [Example 221] and print it.
<0.12 µg/mL
